experimental system: 5HT2A (Homo sapiens, UniProt P28223)
Construct: expressed in transfected cells
Sequence (P28223 whole entry): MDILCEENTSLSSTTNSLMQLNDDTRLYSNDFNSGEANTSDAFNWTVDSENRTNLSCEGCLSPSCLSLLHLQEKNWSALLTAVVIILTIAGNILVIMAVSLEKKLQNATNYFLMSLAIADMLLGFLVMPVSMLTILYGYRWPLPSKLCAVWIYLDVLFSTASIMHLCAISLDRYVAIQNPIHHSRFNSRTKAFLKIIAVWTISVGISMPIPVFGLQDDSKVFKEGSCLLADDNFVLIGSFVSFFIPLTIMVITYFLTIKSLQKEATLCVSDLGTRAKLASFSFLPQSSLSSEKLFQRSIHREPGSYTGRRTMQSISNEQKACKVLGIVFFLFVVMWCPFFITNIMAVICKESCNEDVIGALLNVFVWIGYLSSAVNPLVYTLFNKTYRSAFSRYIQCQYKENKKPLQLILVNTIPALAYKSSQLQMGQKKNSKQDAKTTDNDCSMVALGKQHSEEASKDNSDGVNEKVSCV
assay: Cell assay using human cells, 5HT2A
Assay type: binding
protocol conditions: Table I
Procedure: The Kd and Bmax values from the saturation assays were determined for best fit to a one-site or a two-site binding model using a partial F-test. De Lean, A., A. A. Hancock, and R. J. Lefkowitz, Mol. Pharmacol. 21:5-16 (1981). […] The IC50 values from the competition assays, the binding parameters for the IP3 standard curve and the EC50 and Emax values from the IP3 assays were determined by nonlinear regression analysis of four parameter logistic equations (Systat, Systat Inc, Evanston, Ill.). […]
Where a name gives a salt, the structure may show the parent alone.
observable: Ki (nM)
Respond numerically; units are nM and should not be typed.

| compound | observable | measure unit | test result |
| --- | --- | --- | --- |
| COc1ccc(CC2N[C@@H]3CCCCC[C@H]3c3c2[nH]c2ccc(C)cc32)cc1OC (relative stereo) [Example 14, hydrochloride] | Ki | nM | 1450 |
| COc1ccc(CC2N[C@@H]3CCCC[C@H]3c3c2[nH]c2ccc(C)cc32)cc1OC (relative stereo) [Example 11, hydrochloride] | Ki | nM | 293 |
| COc1ccc(CC2N[C@@H]3CCCC[C@H]3c3c2[nH]c2c(Cl)cccc32)cc1OC (relative stereo) [Example 12, hydrochloride] | Ki | nM | 172 |
| Clc1cccc2c3c([nH]c12)CN[C@@H]1CCCC[C@@H]31 (relative stereo) [Example 7, hydrochloride] | Ki | nM | 278 |
| COc1ccc(CC2N[C@@H]3CCC[C@H]3c3c2[nH]c2ccc(C)cc32)cc1OC (relative stereo) [Example 8, hydrochloride] | Ki | nM | 124 |

--- query ---
Req: // map COc1ccc(CC2N[C@@H]3CCCC[C@H]3c3c2[nH]c2c(C)cc(C)cc32)cc1OC (relative stereo) [Example 13, hydrochloride] to recorded Ki (system: 5HT2A (Homo sapiens, UniProt P28223))
Resp: 917

###

experimental system: 5HT2A (Homo sapiens, UniProt P28223)
Construct: expressed in transfected cells
assay: Cell assay using human cells, 5HT2A
Assay type: binding
protocol conditions: Table I
Structures can show the parent of a compound that is named as a salt.
observable: pKi
Friendly reminder that pKi comes from taking -log10 of the concentration in mol/L.

| compound | experimental system | test result |
| --- | --- | --- |
| COc1ccc(CC2N[C@@H]3CCC[C@H]3c3c2[nH]c2c(C)cc(C)cc32)cc1OC (relative stereo) [Example 10, hydrochloride] | 5HT2A (Homo sapiens, UniProt P28223) | 6.25 |
| Cc1cc(C)c2[nH]c3c(c2c1)[C@@H]1CCCC[C@H]1NC3Cc1cccc2ccccc12 (relative stereo) [Example 17, hydrochloride] | 5HT2A (Homo sapiens, UniProt P28223) | 6.58 |
| Cc1ccc2[nH]c3c(c2c1)[C@@H]1CCC[C@H]1NC3Cc1cccc2ccccc12 (relative stereo) [Example 15, hydrochloride] | 5HT2A (Homo sapiens, UniProt P28223) | 7.48 |

Now, please, on to the next compound.
Req: Name the reported pKi value associated with the compound COc1ccc(CC2N[C@@H]3CCC[C@H]3c3c2[nH]c2c(Cl)cccc32)cc1OC (relative stereo) [Example 9, hydrochloride]
Resp: 7.27
